Recorded Relative Ratio to aMTD AVE for the following substances
Tested on: RAW 264.7 cells
Experiment: Quantitative cell-permeability of FITC-labeled aMTD- or rPeptide-fused CRA recombinant proteins (flow cytometry)
Format: cell-based
Conditions: cell-permeability of rPeptide-fused CRA recombinant protein relative to average of 240 aMTDs; 10 μM FITC-labeled, 1 hour, 37° C., RAW 264.7 cells
# answer = number (no unit)

See these solved cases before continuing.
68 (VAPVLPAAPLVP; Amino acid Sequence of rPeptide ID 68) [compound 68] : 0.32
18 (NYCCTPTTNGQS; Amino acid Sequence of rPeptide ID 18) [compound 18] : 0.10
390 (VPLLVPVVPVVP; Amino acid Sequence of rPeptide ID 390) [compound 390] : 0.41

Turning now to a further substance:
Qu. I'd like to know its Relative Ratio to aMTD AVE. The substance in question is 227 (LAAIVPIAAAVP; Amino acid Sequence of rPeptide ID 227) [compound 227]
Ans. 0.08
